- System: 168753-222-R-J1-PDC complex spheroid viability
- Test Summary: Anticancer human tumor 168753-222-R-J1-PDC patient-derived bladder carcinoma cell line growth inhibition [CLK]
- Condition Label: second compound 1 µM; first compound 0.00316 µM; hits give low values
- Text: A high-throughput screen of multi-cell type tumor spheroids was designed to identify active combinations of […] and targeted small molecules. Complex spheroids include a stromal component modeled by human endothelial cells (HUVEC) and fibroblasts modeled by human mesenchymal stem cells (MSCs). […] Compounds. […] If the clinical Cmax for an agent had not been determined, the highest concentration tested was 10 microM. […]

{"Compound": "Cn1ncnc1[C@H]1c2n[nH]c(=O)c3cc(F)cc(c23)N[C@@H]1c1ccc(F)cc1 + CN1CCN(c2cc(C(=O)Nc3cc4cc(-c5cnn(C)c5)ccc4cn3)ccn2)CC1", "Measurement Target": "168753-222-R-J1-PDC complex spheroid viability", "viability, T/C (%)": 0.18}
{"Compound": "CCN1CCN(Cc2ccc(Nc3ncc(F)c(-c4cc(F)c5nc(C)n(C(C)C)c5c4)n3)nc2)CC1 + CN1CCN(c2cc(C(=O)Nc3cc4cc(-c5cnn(C)c5)ccc4cn3)ccn2)CC1", "Measurement Target": "168753-222-R-J1-PDC complex spheroid viability", "viability, T/C (%)": 0.18}
{"Compound": "COc1c(OCCCN2CCOCC2)ccc2c3n(c(=NC(=O)c4cnc(N)nc4)nc12)CCN3 + CNC(=O)c1ccc(Nc2nc(OC3CCCC3)c3c(-c4ccc5nc(C)oc5c4)c[nH]c3n2)c(OC)c1", "Measurement Target": "168753-222-R-J1-PDC complex spheroid viability", "viability, T/C (%)": 25}
{"Compound": "CCN1CCN(Cc2ccc(Nc3ncc(F)c(-c4cc(F)c5nc(C)n(C(C)C)c5c4)n3)nc2)CC1 + CNC(=O)c1ccc(Nc2nc(OC3CCCC3)c3c(-c4ccc5nc(C)oc5c4)c[nH]c3n2)c(OC)c1", "Measurement Target": "168753-222-R-J1-PDC complex spheroid viability", "viability, T/C (%)": 25.2}
{"Compound": "CCc1c2c(nc3ccc(O)cc13)-c1cc3c(c(=O)n1C2)COC(=O)[C@]3(O)CC + CN1CCN(c2cc(C(=O)Nc3cc4cc(-c5cnn(C)c5)ccc4cn3)ccn2)CC1", "Measurement Target": "168753-222-R-J1-PDC complex spheroid viability", "viability, T/C (%)": 0.14}

----------
- System: 168753-222-R-J1-PDC complex spheroid viability
- Test Summary: Anticancer human tumor 168753-222-R-J1-PDC cell line growth inhibition [CLK]; active = viability on the fitted dose curve at most 10% of control; inactive = the rest;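 note: luminescence signal used as surrogate for viable cell amount; viability measured after seven days of drug exposure; 100% = DMSO vehicle control wells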
- Condition Label: second compound 10 µM; first compound 3.16 µM
Possible outcomes: active, inactive

{"Compound": "Nc1ccn(C2OC(CO)C(O)C2(F)F)c(=O)n1 (centres undefined) + CN1CCN(c2cc(C(=O)Nc3cc4cc(-c5cnn(C)c5)ccc4cn3)ccn2)CC1", "Qualitative Label": "active"}
{"Compound": "O=c1[nH]cc(F)c(=O)[nH]1 + CN1CCN(c2cc(C(=O)Nc3cc4cc(-c5cnn(C)c5)ccc4cn3)ccn2)CC1", "Qualitative Label": "active"}
{"Compound": "C=CC(=O)N1CCN(c2nc(=O)n(-c3c(C)ccnc3C(C)C)c3nc(-c4c(O)cccc4F)c(F)cc23)C(C)C1 (centres undefined) + CN1CCN(c2cc(C(=O)Nc3cc4cc(-c5cnn(C)c5)ccc4cn3)ccn2)CC1", "Qualitative Label": "active"}
{"Compound": "C=CC(=O)N1CCN(c2nc(=O)n(-c3c(C)ccnc3C(C)C)c3nc(-c4c(O)cccc4F)c(F)cc23)C(C)C1 (centres undefined) + CNC(=O)c1ccc(Nc2nc(OC3CCCC3)c3c(-c4ccc5nc(C)oc5c4)c[nH]c3n2)c(OC)c1", "Qualitative Label": "inactive"}

The reported measurements were obtained from PubChem BioAssay AID2060626.
